Assignment: determine reported IC50 for the given compounds.
system: KB; experiment: Cytotoxicity against human KB cells; type: functional, cell-based
Give the number; µg/mL is assumed, so skip it.

// fetch IC50 for CO/N=C/CCCCCCC[C@@H](C)CCCCCCCCCCc1cccnc1 [IKIMINE A] ; system: KB
5

// fetch IC50 for CO[C@H]1C[C@H](CC[C@H](C)[C@H](O)[C@H](C)[C@H]2OC(=O)/C=C/C(C)=C/C[C@H](O)C[C@@H]3CCC[C@H](C[C@H](OC)[C@@H](C)[C@@H](O)C[C@@H](O)[C@H](C)[C@H](O)[C@@H](C)[C@H]([C@@H](C)CC[C@H]4C[C@H](OC)C[C@H](C)O4)OC(=O)/C=C/C(C)=C/C[C@H](O)C[C@@H]4C=CC[C@H](C[C@H](OC)[C@@H](C)[C@@H](O)C[C@@H](O)[C@@H]2C)O4)O3)O[C@@H](C)C1 [ISOSWINHOLIDE A] ; system: KB
1.1

// fetch IC50 for CO[C@H]1C[C@H](CC[C@H](C)[C@H](O)[C@H](C)[C@H]2OC(=O)/C=C/C(C)=C/C[C@H](O)C[C@@H]3C=CC[C@@H](C[C@H](OC)[C@@H](C)[C@@H](O)C[C@@H](O)[C@H](C)[C@@H]([C@@H](C)[C@@H](O)[C@@H](C)CC[C@H]4C[C@H](OC)C[C@H](C)O4)OC(=O)/C=C/C(C)=C/C[C@H](O)C[C@@H]4C=CC[C@@H](C[C@H](OC)[C@@H](C)[C@@H](O)C[C@@H](O)[C@@H]2C)O4)O3)O[C@@H](C)C1 [Swinholide A] ; system: KB
0.04

// fetch IC50 for CO[C@H]1C[C@H](CC[C@H](C)[C@H](O)[C@H](C)[C@H]2OC(=O)/C=C/C(C)=C/C[C@H](O)C[C@@H]3CCC[C@H](C[C@H](OC)[C@@H](C)[C@@H](O)C[C@@H](O)[C@H](C)[C@@H]([C@@H](C)[C@@H](O)[C@@H](C)CC[C@H]4C[C@H](O)C[C@H](C)O4)OC(=O)/C=C/C(C)=C/C[C@H](O)C[C@@H]4C=CC[C@H](C[C@H](OC)[C@@H](C)[C@@H](O)C[C@@H](O)[C@@H]2C)O4)O3)O[C@@H](C)C1 [swiholide C] ; system: KB
0.04

Sourced from ChEMBL document CHEMBL1150195
